Source: patent US20100311714A1

# Experiment Notes: Parallel Artificial Membrane Permeability Assay (PAMPA) at pH 6.8
# Assay type: physicochemical
Value Kind: HT-Perm logPe pH6.8

Smiles Entry | Value Kind | Numeric Result
CCNc1ncc(-c2ccc3ncc4c(c3c2)n(-c2ccc(N3CC[C@@H](O)C3)nc2C)c(=O)n4C)cc1COCC | HT-Perm logPe pH6.8 | −4.1
CCNc1cc(-c2ccc3ncc4c(c3c2)n(-c2ccc(N(C)CCOC)nc2C)c(=O)n4C)cnc1C | HT-Perm logPe pH6.8 | −3.6
CCNc1ncc(-c2ccc3ncc4c(c3c2)n(-c2ccc(C(C)(C)O)nc2C)c(=O)n4C)cn1 | HT-Perm logPe pH6.8 | −4.6
COc1cc(-c2ccc3ncc4c(c3c2)n(-c2ccc(N(C)C)nc2C)c(=O)n4C)cnc1CO | HT-Perm logPe pH6.8 | −4.1
COc1ccc(-n2c(=O)n(C)c3cnc4ccc(-c5cnc(N(C)C)nc5)cc4c32)c(Cl)n1 | HT-Perm logPe pH6.8 | −3.5
Cc1nc(F)ccc1-n1c(=O)n(C)c2cnc3ccc(-c4cncc(C(C)(C)O)c4)cc3c21 | HT-Perm logPe pH6.8 | −5.5
COCc1ncc(-c2ccc3ncc4c(c3c2)n(-c2ccc(N3CCC3)nc2C)c(=O)n4C)cc1OC | HT-Perm logPe pH6.8 | −4.2

###

# Tested System: PI3K alfa (Homo sapiens)
# Construct: His tag (C); made in house; host or cells: baculovirus BV1075; Tn5 (Trichoplusia ni) or TiniPro insect cells
# Sequence (P42336 with tags, fused parts or gaps limits assumed): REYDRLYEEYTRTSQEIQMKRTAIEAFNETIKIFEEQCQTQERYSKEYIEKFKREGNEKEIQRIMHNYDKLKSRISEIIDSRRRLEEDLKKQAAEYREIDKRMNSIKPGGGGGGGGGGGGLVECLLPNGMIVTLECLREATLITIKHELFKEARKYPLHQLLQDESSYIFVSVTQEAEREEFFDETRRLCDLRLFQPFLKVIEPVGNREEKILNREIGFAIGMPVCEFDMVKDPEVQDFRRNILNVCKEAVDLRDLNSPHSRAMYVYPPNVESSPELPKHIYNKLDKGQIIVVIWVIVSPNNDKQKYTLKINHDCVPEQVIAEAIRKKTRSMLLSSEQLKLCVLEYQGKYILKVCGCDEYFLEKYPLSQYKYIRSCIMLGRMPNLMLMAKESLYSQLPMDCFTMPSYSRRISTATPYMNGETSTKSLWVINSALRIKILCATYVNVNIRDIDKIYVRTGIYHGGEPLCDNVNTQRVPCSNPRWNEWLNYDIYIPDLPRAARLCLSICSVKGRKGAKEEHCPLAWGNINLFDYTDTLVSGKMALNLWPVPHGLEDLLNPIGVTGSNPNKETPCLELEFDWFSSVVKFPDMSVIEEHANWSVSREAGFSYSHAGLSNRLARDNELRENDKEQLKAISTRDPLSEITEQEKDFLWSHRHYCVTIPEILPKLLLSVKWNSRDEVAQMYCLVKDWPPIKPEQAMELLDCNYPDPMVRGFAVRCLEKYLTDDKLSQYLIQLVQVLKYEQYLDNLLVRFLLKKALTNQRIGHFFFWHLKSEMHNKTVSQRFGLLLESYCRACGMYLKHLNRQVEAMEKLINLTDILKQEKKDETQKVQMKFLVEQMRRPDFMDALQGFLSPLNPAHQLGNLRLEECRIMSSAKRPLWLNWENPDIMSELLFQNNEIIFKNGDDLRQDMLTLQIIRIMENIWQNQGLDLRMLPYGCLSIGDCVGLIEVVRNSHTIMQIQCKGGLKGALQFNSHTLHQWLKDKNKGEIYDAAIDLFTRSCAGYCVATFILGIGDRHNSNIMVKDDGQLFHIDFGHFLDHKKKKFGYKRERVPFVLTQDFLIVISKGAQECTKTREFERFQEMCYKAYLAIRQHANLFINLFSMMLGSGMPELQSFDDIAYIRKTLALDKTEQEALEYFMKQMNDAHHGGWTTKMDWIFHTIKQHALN
# Experiment Notes: PI3K alpha kinase assay (Kinase-Glo luminescence)
# Type: biochemical
# Condition Notes: read-out: PI3Kalfa/IC50
# Protocol: In a more preferred assay, the kinase reaction is performed in a final volume of 10 μL per well of a low volume non binding CORNING, 384 well black plate (Cat. No. #3676). The final concentrations of ATP and phosphatidyl inositol (PI) in the assay are 1 μM and 10 μg/mL respectively. […] IC50 is determined by a four parameter curve fitting routine that comes along with “excel fit”. […] Alternatively, IC50 values are calculated using idbsXLfit model 204, which is a 4 parameter logistic model.
Value Kind: IC50 (nM)

Molecule | Value Kind | Measure Unit | Numeric Result
COc1ncccc1-n1c(=O)n(C)c2cnc3ccc(-c4cnc5c(ccn5C)c4)cc3c21 [Example 1.7] | IC50 | nM | 134
CCOc1ncc(-c2ccc3ncc4c(c3c2)n(-c2cccnc2C)c(=O)n4C)cn1 [Example 2.5] | IC50 | nM | 119

(P) COc1ccc(-c2ccc3ncc4c(c3c2)n(-c2cccnc2C)c(=O)n4C)cc1OC [Example 2.9]
(Q) Cc1ncccc1-n1c(=O)n(C)c2cnc3ccc(-c4ccc(CO)nc4)cc3c21 [Example 2.6]
Record comparison, field IC50: mark the lower of P and Q . Output the label that corresponds to your choice.
P

###

# Tested System: mTOR (Homo sapiens, UniProt P42345)
# Construct: purchased Invitrogen Corporation (Carlsbad/Calif., USA) PV4753
# Sequence (P42345 1360-2549 limits assumed): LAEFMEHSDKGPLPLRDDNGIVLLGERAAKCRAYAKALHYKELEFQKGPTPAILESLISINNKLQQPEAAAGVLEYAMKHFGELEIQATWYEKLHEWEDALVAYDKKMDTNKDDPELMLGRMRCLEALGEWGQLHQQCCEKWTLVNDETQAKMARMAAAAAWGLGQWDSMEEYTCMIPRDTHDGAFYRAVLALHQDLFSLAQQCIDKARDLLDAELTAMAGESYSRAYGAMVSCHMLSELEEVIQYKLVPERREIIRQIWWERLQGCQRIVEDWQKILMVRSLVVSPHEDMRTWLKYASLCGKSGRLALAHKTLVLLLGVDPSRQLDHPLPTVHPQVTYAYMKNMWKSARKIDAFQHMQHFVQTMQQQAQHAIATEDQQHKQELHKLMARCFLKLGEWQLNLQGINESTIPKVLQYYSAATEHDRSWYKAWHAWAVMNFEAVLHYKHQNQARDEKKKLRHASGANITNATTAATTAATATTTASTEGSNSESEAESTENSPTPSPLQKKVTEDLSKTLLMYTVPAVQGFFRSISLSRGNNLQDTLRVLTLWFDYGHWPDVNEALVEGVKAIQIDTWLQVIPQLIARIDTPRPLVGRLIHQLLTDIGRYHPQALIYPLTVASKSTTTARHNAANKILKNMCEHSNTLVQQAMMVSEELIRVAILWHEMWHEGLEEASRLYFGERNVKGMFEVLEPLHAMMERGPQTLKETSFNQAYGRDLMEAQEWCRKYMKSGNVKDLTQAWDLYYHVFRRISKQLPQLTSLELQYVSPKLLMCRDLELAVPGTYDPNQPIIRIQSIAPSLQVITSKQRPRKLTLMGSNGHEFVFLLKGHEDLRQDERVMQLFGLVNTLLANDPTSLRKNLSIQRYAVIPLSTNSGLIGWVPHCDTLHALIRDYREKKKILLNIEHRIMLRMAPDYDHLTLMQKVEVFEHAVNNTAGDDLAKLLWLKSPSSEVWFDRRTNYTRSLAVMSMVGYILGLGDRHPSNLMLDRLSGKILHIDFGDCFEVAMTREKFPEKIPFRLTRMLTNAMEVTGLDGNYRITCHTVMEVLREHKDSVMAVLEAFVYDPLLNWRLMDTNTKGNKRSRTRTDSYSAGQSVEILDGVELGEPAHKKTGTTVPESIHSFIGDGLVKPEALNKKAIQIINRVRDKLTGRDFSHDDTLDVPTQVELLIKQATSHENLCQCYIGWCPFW
# Experiment Notes: Biochemical assay for m-TOR by TR-FRET
# Condition Notes: read-out: EPK_mTOR/IC50
Value Kind: IC50 (nM)

Compound | IC50, nM
CCNc1ncc(-c2ccc3ncc4c(c3c2)n(-c2ccc(N3CC[C@@H](O)C3)nc2C)c(=O)n4C)cc1COCC | 214
CCNc1cc(-c2ccc3ncc4c(c3c2)n(-c2ccc(N(C)CCOC)nc2C)c(=O)n4C)cnc1C | 6
CCOc1cc(-c2ccc3ncc4c(c3c2)n(-c2ccc(OCCOC)nc2C)c(=O)n4C)cnc1COC | 98
CCNc1cc(-c2ccc3ncc4c(c3c2)n(-c2ccc(N3CCC3)nc2C)c(=O)n4C)cnc1CO | 4
Cc1nc(N(C)C)ccc1-n1c(=O)n(C)c2cnc3ccc(-c4cncc(N)c4)cc3c21 | 9
Cc1nc(N2CCC2)ccc1-n1c(=O)n(C)c2cnc3ccc(-c4cncc(OC(C)C)c4)cc3c21 | 37
CCNc1ncc(-c2ccc3ncc4c(c3c2)n(-c2ccc(N3CC[C@@H](O)C3)nc2C)c(=O)n4C)cn1 | 11
COCCN(C)c1ccc(-n2c(=O)n(C)c3cnc4ccc(-c5cnc(N)c(C(F)(F)F)c5)cc4c32)c(C)n1 | 8

(P) COc1cc(-c2ccc3ncc4c(c3c2)n(-c2ccc(N)nc2C)c(=O)n4C)cnc1CO
(Q) CNc1ccc(-c2ccc3ncc4c(c3c2)n(-c2ccc(N3CCC3)nc2C)c(=O)n4C)cn1
(R) CNc1ncc(-c2ccc3ncc4c(c3c2)n(-c2ccc(C)nc2C)c(=O)n4C)cn1
(S) CCOc1ccc(-c2ccc3ncc4c(c3c2)n(-c2ccc(C(C)(C)O)nc2C)c(=O)n4C)cn1
(T) CNc1cc(-c2ccc3ncc4c(c3c2)n(-c2ccc(C(F)(F)F)nc2C)c(=O)n4C)cnc1CO
Order the records so the highest IC50 appears first and the lowest last. A complete answer lists every label in the requested sequence.
P, S, R, Q, T

(P) Cc1ncccc1-n1c(=O)n(C)c2cnc3ccc(-c4cncc(N)c4)cc3c21
(Q) CNc1ncc(-c2ccc3ncc4c(c3c2)n(-c2ccc(F)nc2C)c(=O)n4C)cc1C(F)(F)F
(R) Cc1nc(F)ccc1-n1c(=O)n(C)c2cnc3ccc(-c4cncc(N)c4)cc3c21
(S) CNc1cncc(-c2ccc3ncc4c(c3c2)n(-c2cccnc2C)c(=O)n4C)c1
(T) COc1cc(-c2ccc3ncc4c(c3c2)n(-c2cccnc2C)c(=O)n4C)cnc1C(OC)OC
Rank entries according to their IC50, from the largest number down. Form field (ranking): labels in requested order.
T, R, Q, S, P
(T: 169 nM, R: 110 nM, Q: 67 nM, S: 22 nM, P: 12 nM)

(P) Cc1nc(N2CCC(O)C2)ccc1-n1c(=O)n(C)c2cnc3ccc(-c4cncc(C(C)(C)O)c4)cc3c21 (stereo not shown)
(Q) CNc1ncc(-c2ccc3ncc4c(c3c2)n(-c2ccc(N3CC[C@H](O)C3)nc2C)c(=O)n4C)cc1C(F)(F)F
(R) CNc1ncc(-c2ccc3ncc4c(c3c2)n(-c2cnc(F)cc2C)c(=O)n4C)cn1
(S) CNc1ncc(-c2ccc3ncc4c(c3c2)n(-c2ccc(N3CC[C@@H](O)C3)nc2C)c(=O)n4C)cn1
(T) Cc1cc(F)ncc1-n1c(=O)n(C)c2cnc3ccc(-c4cnc5c(ccn5C)c4)cc3c21
Put these in order: smallest IC50 first, largest last. Please list each label once, in the requested order.
Q, P, S, R, T

(1) CCNc1ncc(-c2ccc3ncc4c(c3c2)n(-c2ccc(C(C)(C)O)nc2C)c(=O)n4C)cn1
(2) Cc1nc(C(C)(C)O)ccc1-n1c(=O)n(C)c2cnc3ccc(-c4cncc(OC(C)C)c4)cc3c21
// compare measured IC50, left 1 , right 2 , return larger Output the label that corresponds to your choice.
2
